# TARGET_ENTITY: Haspin kinase (Homo sapiens (Human))
# Sequence (Q8TF76 484-798): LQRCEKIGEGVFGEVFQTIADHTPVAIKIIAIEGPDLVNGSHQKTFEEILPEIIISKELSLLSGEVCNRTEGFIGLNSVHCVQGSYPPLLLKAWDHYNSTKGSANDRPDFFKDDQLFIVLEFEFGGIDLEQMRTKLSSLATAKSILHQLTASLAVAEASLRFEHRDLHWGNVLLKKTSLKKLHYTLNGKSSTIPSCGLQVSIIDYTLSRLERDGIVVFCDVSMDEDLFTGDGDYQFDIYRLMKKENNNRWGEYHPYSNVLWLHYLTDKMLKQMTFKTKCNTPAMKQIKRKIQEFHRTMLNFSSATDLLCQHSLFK
ATTRIBUTE_MEASURED: IC50 (nM)

> print(dat)
                                   compound  numeric.value
1  NC(=O)c1cc2c([nH]1)-c1ccncc1OC21CCN(CCC(F)(F)F)CC1            466
2  CC1Oc2cnccc2-c2[nH]c(C(N)=O)cc21 (stereo not shown)            247
3      COCCn1c(C(N)=O)cc2c1-c1ccncc1OC2(C)C            182
4    NC(=O)c1cc2c([nH]1)-c1ccncc1OC21CCOCC1            206

* * *

# TARGET_ENTITY: CDK8/Cyclin C (Homo sapiens (Human))
# PROTOCOL: CDK8/Cyclin C binding assay (LanthaScreen Eu-Kinase Binding Assay)
# CONDITION_DETAILS: binding assay
ATTRIBUTE_MEASURED: IC50 (nM)

> print(dat)
                  compound.structure.string  numeric.value
1  CC1(C)Oc2cnccc2-c2[nH]c(C(=O)NCCc3ccccc3)cc21            162
2     CCn1c(C(N)=O)cc2c1-c1ccncc1OC21CCCCC1          0.314

[P] Cl.NC(=O)c1cc2c([nH]1)-c1ccncc1OC21CCNCC1
[Q] Cn1c(C(=O)O)cc2c1-c1ccncc1OC2(C)C
Inquiry: Lower value for measured IC50? Options: P , Q Refer to your chosen item by its label in the answer.
Reply text: Q
(Q: 61.1 nM, P: 412 nM)

* * *

# TARGET_ENTITY: CDK8/Cyclin C (Homo sapiens (Human), UniProt P49336)
# Sequence (P49336 whole entry): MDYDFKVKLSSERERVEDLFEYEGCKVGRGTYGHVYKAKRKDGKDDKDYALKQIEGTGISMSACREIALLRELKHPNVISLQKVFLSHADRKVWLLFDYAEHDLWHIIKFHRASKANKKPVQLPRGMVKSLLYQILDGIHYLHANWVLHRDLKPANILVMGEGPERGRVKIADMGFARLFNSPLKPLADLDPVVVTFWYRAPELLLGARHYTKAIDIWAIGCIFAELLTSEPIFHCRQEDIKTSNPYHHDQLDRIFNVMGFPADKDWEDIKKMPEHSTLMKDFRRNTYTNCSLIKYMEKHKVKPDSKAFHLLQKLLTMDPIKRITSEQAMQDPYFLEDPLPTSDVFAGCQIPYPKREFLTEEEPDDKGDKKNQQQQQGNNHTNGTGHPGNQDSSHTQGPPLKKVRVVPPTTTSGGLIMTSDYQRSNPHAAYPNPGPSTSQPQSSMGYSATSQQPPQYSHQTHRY
# Sequence (P24863 whole entry partner): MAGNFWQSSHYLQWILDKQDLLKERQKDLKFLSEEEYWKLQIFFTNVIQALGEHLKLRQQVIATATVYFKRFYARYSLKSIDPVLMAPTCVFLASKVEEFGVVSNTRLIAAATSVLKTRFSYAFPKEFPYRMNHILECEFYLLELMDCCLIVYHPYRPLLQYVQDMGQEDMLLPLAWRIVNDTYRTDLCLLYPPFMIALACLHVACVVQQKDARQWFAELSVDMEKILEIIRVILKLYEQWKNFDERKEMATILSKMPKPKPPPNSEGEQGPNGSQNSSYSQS
# PROTOCOL: CDK8/Cyclin C binding assay (LanthaScreen Eu-Kinase Binding Assay)
# CONDITION_DETAILS: binding assay
pIC50: −log10 of the molar value.
ATTRIBUTE_MEASURED: pIC50

> print(dat)
                                    molecule                             target.entity  attribute.measured  numeric.value
 1  Cn1c(C(N)=O)cc2c1-c1ccncc1OC2(C)C [Example 22]  CDK8/Cyclin C (Homo sapiens (Human), UniProt P49336)               pIC50           8.70
 2  O=C(O)c1cc2c([nH]1)-c1ccncc1OC21CCCCC1 [Example 14]  CDK8/Cyclin C (Homo sapiens (Human), UniProt P49336)               pIC50           7.62
 3  CC1(C)Oc2cnccc2-c2[nH]c(C(N)=O)c(-c3ccccc3O)c21 [Example 64]  CDK8/Cyclin C (Homo sapiens (Human), UniProt P49336)               pIC50           6.95
 4  CC1(C)Oc2cnccc2-c2c1cc(C(N)=O)n2CCF [Example 52]  CDK8/Cyclin C (Homo sapiens (Human), UniProt P49336)               pIC50           8.85
 5  CC1(C)Oc2cnccc2-c2[nH]c(C(=O)O)c(-c3ccc(S(N)(=O)=O)cc3)c21 [Example 30]  CDK8/Cyclin C (Homo sapiens (Human), UniProt P49336)               pIC50           8.05
 6  NC(=O)c1cc2c([nH]1)-c1ccncc1O[C@@H]2C1CCCCC1 (single isomer, unassigned) [Example 69]  CDK8/Cyclin C (Homo sapiens (Human), UniProt P49336)               pIC50           7.71
 7  NC(=O)c1cc2c(n1CCF)-c1ccncc1OC21CCC1 [Example 76]  CDK8/Cyclin C (Homo sapiens (Human), UniProt P49336)               pIC50           9.58
 8  CC(C)C1(C)Oc2cnccc2-c2[nH]c(C(N)=O)cc21 (centres unmarked) [Example 54]  CDK8/Cyclin C (Homo sapiens (Human), UniProt P49336)               pIC50           7.51
 9  CC1(C)Oc2cnccc2-c2c1cc(C(=O)O)n2Cc1ccccc1 [Example 24]  CDK8/Cyclin C (Homo sapiens (Human), UniProt P49336)               pIC50           5.00
10  CCn1c(C(N)=O)cc2c1-c1ccncc1OC21CCN(CC(F)(F)F)CC1 [Example 79]  CDK8/Cyclin C (Homo sapiens (Human), UniProt P49336)               pIC50           8.95

[P] CC1(C)Oc2cnccc2-c2[nH]c(C(N)=O)c(C3=CCOCC3)c21 [Example 55]
[Q] CC(C)NC(=O)c1cc2c([nH]1)-c1ccncc1OC2(C)C [Example 6]
Inquiry: Lower value for measured pIC50? Options: P , Q Refer to your chosen item by its label in the answer.
Reply text: Q
(Q: 5.62, P: 7.41)

[a] COc1cccc(-c2c(C(N)=O)[nH]c3c2C(C)(C)Oc2cnccc2-3)c1 [Example 85]
[b] CC1(C)Oc2cnccc2-c2[nH]c(C(N)=O)c(-c3ccc(S(N)(=O)=O)cc3)c21 [Example 32]
[c] CC1(C)Oc2cnccc2-c2[nH]c(C(=O)O)c(C3=CCOCC3)c21 [Example 56]
[d] CC(C)(C)OC(=O)N1CCC(NC(=O)c2cc3c([nH]2)-c2ccncc2OC3(C)C)CC1 [Example 5]
[e] CCn1c(C(N)=O)c(Cl)c2c1-c1ccncc1OC21CCOCC1 [Example 104]
Inquiry: # rank_down: sort by pIC50, max first Returns: the labels listed in the requested order.
Reply text: e, b, c, a, d

* * *

# TARGET_ENTITY: CDK19/Cyclin C (Homo sapiens (Human))
# Sequence (Q9BWU1 whole entry): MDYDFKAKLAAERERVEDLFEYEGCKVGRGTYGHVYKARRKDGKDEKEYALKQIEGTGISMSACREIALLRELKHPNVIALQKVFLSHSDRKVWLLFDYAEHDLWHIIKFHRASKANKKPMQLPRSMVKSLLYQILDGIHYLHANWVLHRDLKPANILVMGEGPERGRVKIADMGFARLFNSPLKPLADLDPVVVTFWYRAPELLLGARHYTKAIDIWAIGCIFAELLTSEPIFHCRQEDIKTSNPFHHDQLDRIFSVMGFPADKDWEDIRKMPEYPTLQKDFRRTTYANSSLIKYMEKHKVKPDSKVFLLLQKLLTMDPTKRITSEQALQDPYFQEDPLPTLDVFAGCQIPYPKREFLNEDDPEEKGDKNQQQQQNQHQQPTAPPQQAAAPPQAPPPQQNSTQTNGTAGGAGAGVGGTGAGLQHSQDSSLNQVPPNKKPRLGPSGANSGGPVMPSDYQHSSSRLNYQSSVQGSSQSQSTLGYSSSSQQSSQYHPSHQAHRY
# Sequence (P24863 whole entry partner): as the sequence (P24863 whole entry partner) above
# PROTOCOL: CDK19/Cyclin C binding assay (LanthaScreen Eu-Kinase Binding Assay)
# CONDITION_DETAILS: read-out: CDK19-CYCC IC50
pIC50: −log10 of the molar value.
ATTRIBUTE_MEASURED: pIC50

Completed entries (count: 4):
> print(dat)
                                   compound  numeric.value
1  NC(=O)c1cc2c([nH]1)-c1ccncc1O[C@H]2C1CCOCC1 (single isomer, unassigned)           7.85
2  CC1(C)Oc2cnccc2-c2[nH]c(C(=O)O)c(C3=CCOCC3)c21           7.06
3  CC1(C)Oc2cnccc2-c2[nH]c(C(N)=O)c(C3=CCOCC3)c21           7.15
4  CC1(C)Oc2cnccc2-c2[nH]c(C(N)=O)c(-c3ccc(S(N)(=O)=O)cc3)c21           7.09

[a] NC(=O)c1cc2c([nH]1)-c1ccncc1O[C@@H]2C1CCCCC1 (single isomer, unassigned)
[b] CCn1c(C(N)=O)c(-c2ccccc2OC)c2c1-c1ccncc1OC2(C)C
[c] Cn1c(C(N)=O)cc2c1-c1c(Cl)cncc1OC2(C)C
Inquiry: # rank_down: sort by pIC50, max first Returns: the labels listed in the requested order.
Reply text: b, a, c
(b: 7.79, a: 7.06, c: 6.80)

[1] CC(C)C1(C)Oc2cnccc2-c2[nH]c(C(N)=O)cc21 (stereo not drawn)
[2] CC1(C)Oc2cnccc2-c2[nH]c(C(N)=O)cc21
Inquiry: Lower value for measured pIC50? Options: 1 , 2 Refer to your chosen item by its label in the answer.
Reply text: 1

* * *

# TARGET_ENTITY: CDK19/Cyclin C (Homo sapiens (Human))
# PROTOCOL: CDK19/Cyclin C binding assay (LanthaScreen Eu-Kinase Binding Assay)
# CONDITION_DETAILS: read-out: CDK19-CYCC IC50
pIC50: −log10 of the molar value.
ATTRIBUTE_MEASURED: pIC50

Completed entries (count: 3):
> print(dat)
                                   compound  attribute.measured  numeric.value
1  CCn1c(C(N)=O)cc2c1-c1ccncc1OC21CCCCC1 [Example 80]               pIC50           9.11
2  COCCn1c(C(N)=O)cc2c1-c1ccncc1OC2(C)C [Example 45]               pIC50           7.94
3  CC1(C)Oc2cnccc2-c2[nH]c(C(N)=O)c(-c3ccc4[nH]ncc4c3)c21 [Example 65]               pIC50           5.00

[P] NC(=O)c1cc2c(n1CCF)-c1ccncc1OC21CCCCC1 [Example 84]
[Q] C=Cc1c(C(N)=O)[nH]c2c1C(C)(C)Oc1cnccc1-2 [Example 33]
Inquiry: Select the item with the higher value of pIC50 from the options P and Q listed. Refer to your chosen item by its label in the answer.
Reply text: Q

* * *

# TARGET_ENTITY: CDK8/Cyclin C (Homo sapiens (Human))
# PROTOCOL: CDK8/Cyclin C binding assay (LanthaScreen Eu-Kinase Binding Assay)
# CONDITION_DETAILS: binding assay
ATTRIBUTE_MEASURED: IC50 (µM)

> print(dat)
                  compound.structure.string  numeric.value
1        CCn1c(C(=O)O)cc2c1-c1ccncc1OC2(C)C          0.312
2  CC1(C)Oc2cnccc2-c2[nH]c(C(=O)Nc3ccccc3)cc21           5.28
3  CC1(C)Oc2cnccc2-c2[nH]c(C(=O)N3CCOCC3)cc21          0.671
4  NC(=O)c1cc2c([nH]1)-c1ccncc1OC21CCN(CCC(F)(F)F)CC1           0.12
5  NC(=O)c1cc2c([nH]1)-c1ccncc1OC21CCN(CCc2ccccc2)CC1          0.445

[I] CC1(C)Oc2c(ccnc2Cl)-c2[nH]c(C(N)=O)cc21
[II] COc1ccccc1-c1c2c(n(CCF)c1C(N)=O)-c1ccncc1OC2(C)C
Inquiry: Select the item with the higher value of IC50 from the options I and II listed. Refer to your chosen item by its label in the answer.
Reply text: I
